- measurement-notes: Stability of the compound in PBS containing 10% DMSO at 37 degC measured after 3 hrs by HPLC analysis
- Format: physicochemical
- condition-label: read-out: Stability
Listing of entries alongside the reported remaining at 3 h.
Respond with the bare value in %.

Worked cases, answers included:
[[record]]
compound = "O=C(CSc1nc2ccccc2c(=O)[nH]1)NCC1CCCCC1"
unit_descriptor = "%"
recorded_value = 106

[[record]]
compound = "CC1CCCCC1NC(=O)CSc1nc2ccccc2c(=O)[nH]1 (configuration not stated)"
unit_descriptor = "%"
recorded_value = 92

[[record]]
compound = "O=C(CSc1nc2ccccc2c(=O)[nH]1)NC1CCCCCC1"
unit_descriptor = "%"
recorded_value = 81

[[record]]
compound = "CC1CCCC(NC(=O)CSc2nc3ccccc3c(=O)[nH]2)C1 (configuration not stated)"
unit_descriptor = "%"
recorded_value = 96

[[record]]
compound = "C[C@H]1CC[C@H](NC(=O)CSc2nc3ccccc3c(=O)[nH]2)CC1"
unit_descriptor = "%"
recorded_value = 83


Noted for CC1CCC(NC(=O)CSc2nc3ccccc3c(=O)[nH]2)CC1 (configuration not stated) : its remaining at 3 h reads 80

Note to self: remaining at 3 h recorded for O=C(CSc1nc2ccccc2c(=O)[nH]1)NC1CCCCC1 was 109

---

Stability: recorded values
- measurement-notes: Stability of the compound in PBS containing 10% DMSO at 25 degC measured after 48 hrs by HPLC analysis
- Format: physicochemical
- condition-label: buffer
Please answer using a numeric value trailed by its unit.

Sample CC1CCCC(NC(=O)CSc2nc3ccccc3c(=O)[nH]2)C1 (configuration not stated) ; Stability observed: 95%

Consider CC1CCCCC1NC(=O)CSc1nc2ccccc2c(=O)[nH]1 (configuration not stated) . Its measured Stability is 142%

Briefly, Stability measured for O=C(CSc1nc2ccccc2c(=O)[nH]1)NCC1CCCCC1 : 125%

Stability measured on O=C(CSc1nc2ccccc2c(=O)[nH]1)NC1CCCCC1 = 126%

---

- measurement-notes: Cytotoxicity against African green monkey Vero assessed as cell viability at 10 ug/ml after 72 hrs by MTT assay (reference value: 100%)
- Assay type: cell-based
- condition-label: chlorocebus sabaeus, Vero cells; read-out: Activity
readout-name: viability at 72 h, 10 ug/ml (%)
Enter your answer as a number in %; do not include the unit.

[[record]]
molecule = "CC1CCCC(NC(=O)CSc2nc3ccccc3c(=O)[nH]2)C1 (configuration not stated)"
readout_name = "viability at 72 h, 10 ug/ml"
recorded_value = 89

[[record]]
molecule = "O=C(CSc1nc2ccccc2c(=O)[nH]1)NC1CCCCC1"
readout_name = "viability at 72 h, 10 ug/ml"
recorded_value = 90

[[record]]
molecule = "O=C(CSc1nc2ccccc2c(=O)[nH]1)NC1CCCCCC1"
readout_name = "viability at 72 h, 10 ug/ml"
recorded_value = 91

[[record]]
molecule = "CC1CCC(NC(=O)CSc2nc3ccccc3c(=O)[nH]2)CC1 (configuration not stated)"
readout_name = "viability at 72 h, 10 ug/ml"
recorded_value = 84


Reported viability at 72 h, 10 ug/ml of CC1CCCCC1NC(=O)CSc1nc2ccccc2c(=O)[nH]1 (configuration not stated) : 102

Value of measured viability at 72 h, 10 ug/ml for the entry C[C@H]1CC[C@H](NC(=O)CSc2nc3ccccc3c(=O)[nH]2)CC1 : 88

Lab note: measured viability at 72 h, 10 ug/ml of O=C(CSc1nc2ccccc2c(=O)[nH]1)NCC1CCCCC1 was 89

---

- measurement-notes: Stability of the compound in PBS containing 10% DMSO at 37 degC measured after 12 hrs by HPLC analysis
- Assay type: physicochemical
- condition-label: read-out: Stability
readout-name: remaining at 12 h (%)
Give the value in % but do not write % after it.

Previously resolved entries follow.
[[record]]
compound = "O=C(CSc1nc2ccccc2c(=O)[nH]1)NC1CCCCC1"
readout_name = "remaining at 12 h"
recorded_value = 120

[[record]]
compound = "CC1CCCCC1NC(=O)CSc1nc2ccccc2c(=O)[nH]1 (configuration not stated)"
readout_name = "remaining at 12 h"
recorded_value = 70


Item: CC1CCC(NC(=O)CSc2nc3ccccc3c(=O)[nH]2)CC1 (configuration not stated) | remaining at 12 h: 70

Sample C[C@H]1CC[C@H](NC(=O)CSc2nc3ccccc3c(=O)[nH]2)CC1 ; remaining at 12 h observed: 70

Entry under test: O=C(CSc1nc2ccccc2c(=O)[nH]1)NC1CCCCCC1 . Its remaining at 12 h was 81

The value of remaining at 12 h measured for the compound CC1CCCC(NC(=O)CSc2nc3ccccc3c(=O)[nH]2)C1 (configuration not stated) turned out to be 100

remaining at 12 h in this record for O=C(CSc1nc2ccccc2c(=O)[nH]1)NCC1CCCCC1 : 111

---

Activity values by entry
- Species: Danio rerio
- measurement-notes: Cardiotoxicity in Zebrafish AB embryos assessed as heart beat rate at 3 uM measured at 5 days post fertilization by stereomicroscopic method (reference value: 148.1 to 158.2 bpm)
- Assay type: organism-based
- condition-label: in vivo, 120 h
The answer is to be given in bpm; state only the numeric part.

[[record]]
compound = "O=C(CSc1nc2ccccc2c(=O)[nH]1)NC1CCCCCC1"
recorded_value = 160.1

[[record]]
compound = "O=C(CSc1nc2ccccc2c(=O)[nH]1)NCC1CCCCC1"
recorded_value = 157.8

[[record]]
compound = "CC1CCCCC1NC(=O)CSc1nc2ccccc2c(=O)[nH]1 (configuration not stated)"
recorded_value = 162.6

[[record]]
compound = "C[C@H]1CC[C@H](NC(=O)CSc2nc3ccccc3c(=O)[nH]2)CC1"
recorded_value = 149.2

[[record]]
compound = "CC1CCC(NC(=O)CSc2nc3ccccc3c(=O)[nH]2)CC1 (configuration not stated)"
recorded_value = 147.7


response.value for CC1CCCC(NC(=O)CSc2nc3ccccc3c(=O)[nH]2)C1 (configuration not stated) (field: Activity) = 157.2

For reference, reported Activity for O=C(CSc1nc2ccccc2c(=O)[nH]1)NC1CCCCC1 stands at 162.8

---

- measurement-notes: Cytotoxicity against African green monkey Vero assessed as cell viability at 10 ug/ml after 72 hrs by neutral red uptake assay (reference value: 100%)
- Format: cell-based
- condition-label: chlorocebus sabaeus, Vero cells; read-out: Activity
Listed here are compounds together with their documented viability at 72 h, 10 ug/ml.
Give a bare numeral; the unit % is implied.

Take a look at these entries with their results.
[[record]]
compound = "O=C(CSc1nc2ccccc2c(=O)[nH]1)NC1CCCCC1"
unit_descriptor = "%"
recorded_value = 92

[[record]]
compound = "C[C@H]1CC[C@H](NC(=O)CSc2nc3ccccc3c(=O)[nH]2)CC1"
unit_descriptor = "%"
recorded_value = 93

[[record]]
compound = "CC1CCCCC1NC(=O)CSc1nc2ccccc2c(=O)[nH]1 (configuration not stated)"
unit_descriptor = "%"
recorded_value = 95

[[record]]
compound = "CC1CCCC(NC(=O)CSc2nc3ccccc3c(=O)[nH]2)C1 (configuration not stated)"
unit_descriptor = "%"
recorded_value = 95

[[record]]
compound = "CC1CCC(NC(=O)CSc2nc3ccccc3c(=O)[nH]2)CC1 (configuration not stated)"
unit_descriptor = "%"
recorded_value = 95

[[record]]
compound = "O=C(CSc1nc2ccccc2c(=O)[nH]1)NCC1CCCCC1"
unit_descriptor = "%"
recorded_value = 97


Now for another entry.
Summary for this compound, O=C(CSc1nc2ccccc2c(=O)[nH]1)NC1CCCCCC1 : viability at 72 h, 10 ug/ml is 94

---

Activity values for the molecules below.
- Species on record: Danio rerio
- measurement-notes: Cardiotoxicity in Zebrafish AB embryos assessed as heart beat rate at 15 uM measured at 5 days post fertilization by stereomicroscopic method (reference value: 148.1 to 158.2 bpm)
- Format: organism-based
- condition-label: in vivo, 120 h
Please respond with the number in bpm and leave the unit unwritten.

[[record]]
molecule = "O=C(CSc1nc2ccccc2c(=O)[nH]1)NCC1CCCCC1"
recorded_value = 158.9

[[record]]
molecule = "CC1CCC(NC(=O)CSc2nc3ccccc3c(=O)[nH]2)CC1 (configuration not stated)"
recorded_value = 150.3

[[record]]
molecule = "CC1CCCC(NC(=O)CSc2nc3ccccc3c(=O)[nH]2)C1 (configuration not stated)"
recorded_value = 157.4

[[record]]
molecule = "CC1CCCCC1NC(=O)CSc1nc2ccccc2c(=O)[nH]1 (configuration not stated)"
recorded_value = 163.4


Measured Activity, O=C(CSc1nc2ccccc2c(=O)[nH]1)NC1CCCCC1 : 163

Reported Activity for C[C@H]1CC[C@H](NC(=O)CSc2nc3ccccc3c(=O)[nH]2)CC1 was 157.4

Briefly, Activity measured for O=C(CSc1nc2ccccc2c(=O)[nH]1)NC1CCCCCC1 : 160.4

These data points were gathered from ChEMBL document CHEMBL4152290.
